Catalogue of log10 IC50 readings, one per entry.
Target: Protein kinase C beta type (Homo sapiens)
Sequence (P05771 whole entry): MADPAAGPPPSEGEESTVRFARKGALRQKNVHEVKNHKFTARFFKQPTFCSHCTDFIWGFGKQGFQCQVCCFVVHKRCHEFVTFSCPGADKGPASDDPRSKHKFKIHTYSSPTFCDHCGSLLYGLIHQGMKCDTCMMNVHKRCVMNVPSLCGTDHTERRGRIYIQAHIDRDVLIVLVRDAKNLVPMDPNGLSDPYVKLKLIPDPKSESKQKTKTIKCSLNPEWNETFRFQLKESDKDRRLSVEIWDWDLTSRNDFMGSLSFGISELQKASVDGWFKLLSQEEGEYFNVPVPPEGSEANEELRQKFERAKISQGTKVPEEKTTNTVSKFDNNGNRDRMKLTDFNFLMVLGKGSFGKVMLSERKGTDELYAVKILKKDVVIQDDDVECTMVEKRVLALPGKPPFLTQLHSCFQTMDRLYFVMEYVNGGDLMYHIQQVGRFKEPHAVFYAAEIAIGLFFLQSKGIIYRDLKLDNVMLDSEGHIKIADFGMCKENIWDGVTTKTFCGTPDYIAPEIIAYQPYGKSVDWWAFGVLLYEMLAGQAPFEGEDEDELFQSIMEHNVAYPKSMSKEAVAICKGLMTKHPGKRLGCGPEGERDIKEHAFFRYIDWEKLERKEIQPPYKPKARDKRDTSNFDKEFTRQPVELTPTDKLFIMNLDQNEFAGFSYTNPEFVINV
Assay: Inhibition of human Protein kinase C beta 1
# values: log10(IC50), units µM

Request: // returns reported log10 IC50 for input "O=C(N[C@H]1CS(=O)(=O)CCC[C@H]1OC(=O)c1cc(O)c(C(=O)c2c(O)cccc2C(=O)O)c(O)c1)c1ccc(O)cc1"
Response: 0.72

More entries:
Request: Give the measured log10 IC50 of O=C(N[C@H]1CNCCC[C@H]1OC(=O)c1cc(O)c(C(=O)c2c(O)cccc2C(=O)O)c(O)c1)c1ccc(O)cc1 (racemic) .
Response: -1.49

Request: Entry "O=C(N[C@H]1CCCCC[C@H]1OC(=O)c1cc(O)c(C(=O)c2c(O)cccc2C(=O)O)c(O)c1)c1ccc(O)cc1" has what log10 IC50?
Response: -0.66

Request: Entry "O=C(N[C@H]1CSCCC[C@H]1OC(=O)c1cc(O)c(C(=O)c2c(O)cccc2C(=O)O)c(O)c1)c1ccc(O)cc1" : reported log10 IC50 = ?
Response: 0.58

Request: Look up log10 IC50: "O=C(N[C@H]1COCCC[C@H]1OC(=O)c1cc(O)c(C(=O)c2c(O)cccc2C(=O)O)c(O)c1)c1ccc(O)cc1"
Response: 0.40

###

System: Protein kinase C eta type (Homo sapiens, UniProt P24723) | Read-out: IC50
Sequence (P24723 whole entry): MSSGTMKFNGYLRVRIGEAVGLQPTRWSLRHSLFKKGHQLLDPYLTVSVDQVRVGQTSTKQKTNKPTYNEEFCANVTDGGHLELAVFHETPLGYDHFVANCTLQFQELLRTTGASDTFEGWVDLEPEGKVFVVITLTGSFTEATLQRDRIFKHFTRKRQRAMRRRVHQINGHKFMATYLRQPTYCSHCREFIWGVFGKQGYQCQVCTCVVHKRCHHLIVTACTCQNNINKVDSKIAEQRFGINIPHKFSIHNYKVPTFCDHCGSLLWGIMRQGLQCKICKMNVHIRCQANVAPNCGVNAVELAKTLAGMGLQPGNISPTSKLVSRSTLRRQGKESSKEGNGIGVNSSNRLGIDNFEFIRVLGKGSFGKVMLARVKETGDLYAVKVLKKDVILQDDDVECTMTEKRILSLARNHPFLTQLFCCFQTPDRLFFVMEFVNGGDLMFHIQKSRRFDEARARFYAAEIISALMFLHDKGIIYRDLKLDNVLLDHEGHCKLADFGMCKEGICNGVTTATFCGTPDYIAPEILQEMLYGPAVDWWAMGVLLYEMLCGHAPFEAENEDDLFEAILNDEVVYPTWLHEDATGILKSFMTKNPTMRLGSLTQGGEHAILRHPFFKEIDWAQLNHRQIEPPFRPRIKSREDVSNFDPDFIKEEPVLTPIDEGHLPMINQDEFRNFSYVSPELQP
Only the number, expressed in nM, is required.

Request: Fill in: IC50 of "O=C(N[C@H]1CSCCC[C@H]1OC(=O)c1cc(O)c(C(=O)c2c(O)cccc2C(=O)O)c(O)c1)c1ccc(O)cc1" is ___
Response: 100

Continuing:
Request: Item under review: "O=C(N[C@H]1COCCC[C@H]1OC(=O)c1cc(O)c(C(=O)c2c(O)cccc2C(=O)O)c(O)c1)c1ccc(O)cc1" . Reported IC50?
Response: 10

Request: Could you share which IC50 value was measured for "O=C(N[C@H]1CS(=O)(=O)CCC[C@H]1OC(=O)c1cc(O)c(C(=O)c2c(O)cccc2C(=O)O)c(O)c1)c1ccc(O)cc1" ?
Response: 830

Request: Name the reported IC50 value associated with the compound O=C(N[C@H]1CNCCC[C@H]1OC(=O)c1cc(O)c(C(=O)c2c(O)cccc2C(=O)O)c(O)c1)c1ccc(O)cc1 (racemic)
Response: 22

###

Target: Protein kinase C gamma type (Homo sapiens, UniProt P05129)
reportedEndpoint: pIC50
Entry type: numeric. Quantity: pIC50, the -log10 of concentration in molar units.

Request: Could you share what pIC50 was measured for "O=C(N[C@H]1CSCCC[C@H]1OC(=O)c1cc(O)c(C(=O)c2c(O)cccc2C(=O)O)c(O)c1)c1ccc(O)cc1" , tested on Protein kinase C gamma type (Homo sapiens, UniProt P05129)?
Response: 6.00

###

# pIC50 values compiled below
Molecular target: Protein kinase C epsilon type (Homo sapiens)
Sequence (Q02156 whole entry): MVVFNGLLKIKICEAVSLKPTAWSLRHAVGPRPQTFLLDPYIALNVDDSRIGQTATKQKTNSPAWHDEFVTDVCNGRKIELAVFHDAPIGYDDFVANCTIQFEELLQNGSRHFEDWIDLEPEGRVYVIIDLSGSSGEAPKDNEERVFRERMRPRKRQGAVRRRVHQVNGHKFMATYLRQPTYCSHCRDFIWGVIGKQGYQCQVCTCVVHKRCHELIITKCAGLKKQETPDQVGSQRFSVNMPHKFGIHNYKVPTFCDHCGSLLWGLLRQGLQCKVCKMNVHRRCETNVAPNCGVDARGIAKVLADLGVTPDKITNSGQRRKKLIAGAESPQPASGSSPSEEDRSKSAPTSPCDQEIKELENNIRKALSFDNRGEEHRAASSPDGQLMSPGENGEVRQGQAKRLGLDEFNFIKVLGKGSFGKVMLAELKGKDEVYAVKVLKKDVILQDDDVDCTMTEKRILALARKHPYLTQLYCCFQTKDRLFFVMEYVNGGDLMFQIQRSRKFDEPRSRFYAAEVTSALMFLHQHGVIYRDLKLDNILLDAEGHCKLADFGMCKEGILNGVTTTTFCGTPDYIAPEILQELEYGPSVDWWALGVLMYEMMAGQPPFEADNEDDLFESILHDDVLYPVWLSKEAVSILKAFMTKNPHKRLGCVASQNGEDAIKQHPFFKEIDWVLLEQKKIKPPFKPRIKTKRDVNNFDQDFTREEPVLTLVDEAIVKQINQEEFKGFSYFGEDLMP
pIC50 here: minus log base 10 of the concentration, concentration in moles per litre.

Some compounds with recorded pIC50:
Request: Requested field: pIC50. Item: "O=C(N[C@H]1CCCCC[C@H]1OC(=O)c1cc(O)c(C(=O)c2c(O)cccc2C(=O)O)c(O)c1)c1ccc(O)cc1"
Response: 6.55

Request: // lookup pIC50 for "O=C(N[C@H]1CSCCC[C@H]1OC(=O)c1cc(O)c(C(=O)c2c(O)cccc2C(=O)O)c(O)c1)c1ccc(O)cc1"
Response: 5.23

Next:
Request: Please report the recorded pIC50 for "O=C(N[C@H]1CS(=O)(=O)CCC[C@H]1OC(=O)c1cc(O)c(C(=O)c2c(O)cccc2C(=O)O)c(O)c1)c1ccc(O)cc1" .
Response: 4.35

Origin of values: ChEMBL document CHEMBL1128826
